SYSTEM NAME: Thrombin and coagulation factor VII (Homo sapiens) (UniProt P00734+P08709)
ASSAY TEXT: Selectivity for coagulation factor VIIa over thrombin IIa.
Type: protein assay
Kindly supply the reported Selectivity values for the records listed here.
# output: bare number, no unit

Exercise: Look up and report measured Selectivity (Thrombin and coagulation factor VII (Homo sapiens) (UniProt P00734+P08709)) for the following compound: CC(=O)Nc1ccc(C[C@H](NC(=O)[C@@H](Cc2ccccc2)NS(=O)(=O)Cc2ccccc2)C(=O)N[C@@H](CCCN=C(N)N)C(=O)c2nccs2)cc1
Key: 8

Exercise: Given N=C(N)NCCC[C@H](NC(=O)[C@H](Cc1cccc(C(F)(F)F)c1)NC(=O)[C@@H](Cc1ccccc1)NS(=O)(=O)Cc1ccccc1)C(=O)c1nccs1 , report its Selectivity on Thrombin and coagulation factor VII (Homo sapiens) (UniProt P00734+P08709).
Key: 106

Exercise: Please respond with reported Selectivity (system Thrombin and coagulation factor VII (Homo sapiens) (UniProt P00734+P08709)) for CC[C@@H](C)[C@H](NC(=O)[C@@H](Cc1ccccc1)NS(=O)(=O)Cc1ccccc1)C(=O)N[C@@H](CCCN=C(N)N)C(=O)c1nccs1 .
Key: 64

Exercise: Param request: Selectivity | system Thrombin and coagulation factor VII (Homo sapiens) (UniProt P00734+P08709) | item CN(C)CCCC[C@H](NC(=O)[C@@H](Cc1ccccc1)NS(=O)(=O)Cc1ccccc1)C(=O)N[C@@H](CCCN=C(N)N)C(=O)c1nccs1
Key: 5

Exercise: Report measured Selectivity on Thrombin and coagulation factor VII (Homo sapiens) (UniProt P00734+P08709); entry: N#Cc1ccc(C[C@H](NC(=O)[C@@H](Cc2ccccc2)NS(=O)(=O)Cc2ccccc2)C(=O)N[C@@H](CCCNC(=N)N)C(=O)c2nccs2)cc1
Key: 147

Exercise: # lookup: Thrombin and coagulation factor VII (Homo sapiens) (UniProt P00734+P08709) Selectivity, key = N=C(N)NCCC[C@H](NC(=O)[C@H](Cc1ccccc1)NC(=O)[C@@H](Cc1ccccc1)NS(=O)(=O)Cc1ccccc1)C(=O)c1nccs1
Key: 95

* * *

SYSTEM NAME: Thrombin and coagulation factor VII (Homo sapiens) (UniProt P00734+P08709)
ASSAY TEXT: Selectivity for coagulation factor VIIa over thrombin IIa.
Assay type: protein assay
MEASURED METRIC: Selectivity
Respond using a number only.

Exercise: # return recorded Selectivity for entry N=C(N)NCCC[C@H](NC(=O)[C@H](Cc1ccc2ccccc2c1)NC(=O)[C@@H](Cc1ccccc1)NS(=O)(=O)Cc1ccccc1)C(=O)c1nccs1
Key: 1

Exercise: Please indicate Selectivity recorded for N=C(N)NCCC[C@H](NC(=O)[C@H](CCc1ccccc1)NC(=O)[C@@H](Cc1ccccc1)NS(=O)(=O)Cc1ccccc1)C(=O)c1nccs1
Key: 12

Exercise: Using known records, supply Selectivity for Cc1cccc(C)c1C[C@H](NC(=O)[C@@H](Cc1ccccc1)NS(=O)(=O)Cc1ccccc1)C(=O)N[C@@H](CCCN=C(N)N)C(=O)c1nccs1
Key: 40

Exercise: Query Selectivity for N=C(N)NCCC[C@H](NC(=O)[C@H](Cc1cccc(-c2ccccc2)c1)NC(=O)[C@@H](Cc1ccccc1)NS(=O)(=O)Cc1ccccc1)C(=O)c1nccs1
Key: 1

Exercise: // fetch Selectivity given entry N=C(N)NCCC[C@H](NC(=O)[C@H](Cc1cccnc1)NC(=O)[C@@H](Cc1ccccc1)NS(=O)(=O)Cc1ccccc1)C(=O)c1nccs1
Key: 500

Exercise: Look up Selectivity of N=C(N)NCCC[C@H](NC(=O)[C@H](Cc1ccc(F)c(F)c1)NC(=O)[C@@H](Cc1ccccc1)NS(=O)(=O)Cc1ccccc1)C(=O)c1nccs1 and report it.
Key: 70

Exercise: Find the measured Selectivity of N=C(N)NCCC[C@H](NC(=O)[C@H](CC(N)=O)NC(=O)[C@@H](Cc1ccccc1)NS(=O)(=O)Cc1ccccc1)C(=O)c1nccs1 and report it.
Key: 58

Exercise: Give a short answer stating reported Selectivity for N=C(N)NCCC[C@H](NC(=O)[C@H](Cc1ccc(F)cc1)NC(=O)[C@@H](Cc1ccccc1)NS(=O)(=O)Cc1ccccc1)C(=O)c1nccs1 .
Key: 19

Exercise: Give the reported Selectivity for this molecule. N=C(N)NCCC[C@H](NC(=O)[C@H](Cc1ccc(I)cc1)NC(=O)[C@@H](Cc1ccccc1)NS(=O)(=O)Cc1ccccc1)C(=O)c1nccs1
Key: 4

Exercise: Give the reported value of Selectivity for this record: Cc1ccccc1C[C@H](NC(=O)[C@@H](Cc1ccccc1)NS(=O)(=O)Cc1ccccc1)C(=O)N[C@@H](CCCN=C(N)N)C(=O)c1nccs1
Key: 90

Exercise: Dear colleague, please send me the reported Selectivity for CS(=O)(=O)CC[C@H](NC(=O)[C@@H](Cc1ccccc1)NS(=O)(=O)Cc1ccccc1)C(=O)N[C@@H](CCCN=C(N)N)C(=O)c1nccs1 when you can.
Key: 1

Exercise: Provide Selectivity value for the following molecule: N=C(N)NCCC[C@H](NC(=O)[C@H](CO)NC(=O)[C@@H](Cc1ccccc1)NS(=O)(=O)Cc1ccccc1)C(=O)c1nccs1
Key: 0.4

Exercise: Provide Selectivity value for the following molecule: N=C(N)NCCC[C@H](NC(=O)[C@H](Cc1cccc(F)c1)NC(=O)[C@@H](Cc1ccccc1)NS(=O)(=O)Cc1ccccc1)C(=O)c1nccs1
Key: 75

Exercise: Read the entry N=C(N)NCCC[C@H](NC(=O)[C@H](Cc1ccc(-c2ccccc2)cc1)NC(=O)[C@@H](Cc1ccccc1)NS(=O)(=O)Cc1ccccc1)C(=O)c1nccs1 and write its reported Selectivity.
Key: 1

Exercise: For N=C(N)NCCC[C@H](NC(=O)[C@H](Cc1cc(F)cc(F)c1)NC(=O)[C@@H](Cc1ccccc1)NS(=O)(=O)Cc1ccccc1)C(=O)c1nccs1 , write its Selectivity.
Key: 36

Exercise: // Input: Cc1cccc(C[C@H](NC(=O)[C@@H](Cc2ccccc2)NS(=O)(=O)Cc2ccccc2)C(=O)N[C@@H](CCCN=C(N)N)C(=O)c2nccs2)c1 . Output its Selectivity only.
Key: 71
